test system: A549; test: Cytotoxicity against human A549 cells assessed as growth inhibition measured by SRB assay; type: functional, cell-based
Here, each record is paired with measured pIC50 data.
A value of pIC50 is the negative decimal logarithm of a concentration given in moles per litre.

Query: Which measured pIC50 value corresponds to COC(=O)CC/C(C)=C/Cc1c(OC)c(C)c2c(c1OCC#CCN1CCN(C(c3ccc(F)cc3)c3ccc(F)cc3)CC1)C(=O)OC2 ?
Result: 4.47

Query: And what about the compound COC(=O)CC/C(C)=C/Cc1c(OC)c(C)c2c(c1OCC#CCN1CCCc3ccccc31)C(=O)OC2 ?
Result: 4.74

Query: And what about the compound CCCCNc1ccc(CC#CCOc2c(C/C=C(\C)CCC(=O)OC)c(OC)c(C)c3c2C(=O)OC3)cc1 ?
Result: 5.16

Query: And what about the compound COc1c(C)c2c(c(O)c1C/C=C(\C)CCC(=O)O)C(=O)OC2 [MYCOPHENOLIC ACID] ?
Result: 5.92

====

Here, each record is paired with measured IC50 data.
system: HT-29; experiment: Cytotoxicity against human HT-29 cells assessed as growth inhibition measured by SRB assay; format: functional, cell-based

Below: 3 compounds and their reported IC50.
COC(=O)CC/C(C)=C/Cc1c(OC)c(C)c2c(c1OCC#CCN1CCN(C(c3ccc(F)cc3)c3ccc(F)cc3)CC1)C(=O)OC2	> 50 µM
COC(=O)CC/C(C)=C/Cc1c(OC)c(C)c2c(c1OCC#CCN1CCOCC1)C(=O)OC2	> 50 µM
COC(=O)CC/C(C)=C/Cc1c(OC)c(C)c2c(c1OCC#CCN1CCN(C(C)=O)CC1)C(=O)OC2	> 50 µM

Query: Give the reported IC50 for C#CCOc1c(C/C=C(\C)CCC(=O)OC)c(OC)c(C)c2c1C(=O)OC2 (system: HT-29).
Result: 28.8 µM

====

tested on: A549; test: Cytotoxicity against human A549 cells assessed as growth inhibition measured by SRB assay; format: functional, cell-based
Here, each record is paired with measured IC50 data.
# unit: µM | format: bare number

Cc1c2ccncc2c(C)c2c1[nH]c1ccccc12 [ELLIPTECINE]	1.16
COC(=O)CC/C(C)=C/Cc1c(OC)c(C)c2c(c1OCC#CCN1CCN(Cc3ccc4c(c3)OCO4)CC1)C(=O)OC2	45.5
COC(=O)CC/C(C)=C/Cc1c(OC)c(C)c2c(c1OCC#CCN1CCN(C(c3ccccc3)c3ccc(Cl)cc3)CC1)C(=O)OC2 (centres undefined)	29.1

API: the following record is the query input.
Query: Which measured IC50 value corresponds to COC(=O)CC/C(C)=C/Cc1c(OC)c(C)c2c(c1OCC#CCN1CCCC1)C(=O)OC2 ?
Result: 35.9

====

test: Cytotoxicity against human […] cells assessed as growth inhibition measured by SRB assay; assay type: cell-based
Here, each record is paired with measured IC50 data.

Below: 5 molecules and their reported IC50.
COC(=O)CC/C(C)=C/Cc1c(OC)c(C)c2c(c1OCC#CCN(CC#CCOc1c(C/C=C(\C)CCC(=O)OC)c(OC)c(C)c3c1C(=O)OC3)CCC(C)C)C(=O)OC2	48.2 µM
COC(=O)CC/C(C)=C/Cc1c(OC)c(C)c2c(c1OCC#CCN1CCN(C(c3ccccc3)c3ccc(Cl)cc3)CC1)C(=O)OC2 (stereo not given)	> 50 µM
COC(=O)CC/C(C)=C/Cc1c(OC)c(C)c2c(c1OCC#CCN1CCN(c3ccccc3F)CC1)C(=O)OC2	> 50 µM
COC(=O)CC/C(C)=C/Cc1c(OC)c(C)c2c(c1OCC#CCN1CCN(C(c3ccc(F)cc3)c3ccc(F)cc3)CC1)C(=O)OC2	> 50 µM
COC(=O)CC/C(C)=C/Cc1c(OC)c(C)c2c(c1OCC#CCN1CCN(Cc3ccc4c(c3)OCO4)CC1)C(=O)OC2	> 50 µM

Query: Which measured IC50 value corresponds to COC(=O)CC/C(C)=C/Cc1c(OC)c(C)c2c(c1OCC#CCN1CCN(C(C)=O)CC1)C(=O)OC2 ?
Result: > 50 µM

Query: And what about the molecule Cc1c2ccncc2c(C)c2c1[nH]c1ccccc12 [ELLIPTECINE] ?
Result: 1.89 µM

Query: And what about the molecule COC(=O)CC/C(C)=C/Cc1c(OC)c(C)c2c(c1OCC#CCN1CCN(c3ncccn3)CC1)C(=O)OC2 ?
Result: > 50 µM

Query: And what about the molecule COC(=O)CC/C(C)=C/Cc1c(OC)c(C)c2c(c1OCC#CCN1CCN(CCO)CC1)C(=O)OC2 ?
Result: > 50 µM

Query: And what about the molecule COC(=O)CC/C(C)=C/Cc1c(OC)c(C)c2c(c1OCC#CCN1CCC(c3ccccc3)c3ccccc31)C(=O)OC2 (stereo not given) ?
Result: 23.3 µM

====

Here, each record is paired with measured IC50 data.
system: A549; test: Cytotoxicity against human A549 cells assessed as growth inhibition measured by SRB assay; format: functional, cell-based

Below: 6 molecules and their reported IC50.
COC(=O)CC/C(C)=C/Cc1c(OC)c(C)c2c(c1OCC#CCN1CCN(Cc3ccc(Cl)cc3)CC1)C(=O)OC2	> 50 µM
COC(=O)CC/C(C)=C/Cc1c(OC)c(C)c2c(c1OCC#CCN1CCC(C(=O)OC)CC1)C(=O)OC2	40.5 µM
COC(=O)CC/C(C)=C/Cc1c(OC)c(C)c2c(c1OCC#CCN1CCN(c3ccc(C#N)cc3)CC1)C(=O)OC2	> 50 µM
COC(=O)CC/C(C)=C/Cc1c(OC)c(C)c2c(c1OCC#CCN1CCN(c3ccccc3OC)CC1)C(=O)OC2	> 50 µM
COC(=O)CC/C(C)=C/Cc1c(OC)c(C)c2c(c1OCC#CCN1CCN(c3ccc(O)cc3)CC1)C(=O)OC2	> 50 µM
C#CCOc1c(C/C=C(\C)CCC(=O)OC)c(OC)c(C)c2c1C(=O)OC2	31.8 µM

Query: Which measured IC50 value corresponds to COC(=O)CC/C(C)=C/Cc1c(OC)c(C)c2c(c1OCC#CCN(CC#CCOc1c(C/C=C(\C)CCC(=O)OC)c(OC)c(C)c3c1C(=O)OC3)CCC(C)C)C(=O)OC2 ?
Result: 27.5 µM

Query: And what about the molecule COC(=O)CC/C(C)=C/Cc1c(OC)c(C)c2c(c1OCC#CCN1CCC(Cc3ccccc3)CC1)C(=O)OC2 ?
Result: 40.7 µM

Query: And what about the molecule COC(=O)CC/C(C)=C/Cc1c(OC)c(C)c2c(c1OCC#CCN1CCN(CCO)CC1)C(=O)OC2 ?
Result: > 50 µM

Query: And what about the molecule COC(=O)CC/C(C)=C/Cc1c(OC)c(C)c2c(c1OCC#CCN1CCC(c3ccccc3)c3ccccc31)C(=O)OC2 (stereo unspecified) ?
Result: 7.68 µM

Query: And what about the molecule COC(=O)CC/C(C)=C/Cc1c(OC)c(C)c2c(c1OCC#CCN1CCN(C(c3ccccc3)c3ccccc3)CC1)C(=O)OC2 ?
Result: 32.7 µM

Query: And what about the molecule C=CCN(CC#CCOc1c(C/C=C(\C)CCC(=O)OC)c(OC)c(C)c2c1C(=O)OC2)CC=C ?
Result: 43.5 µM

Query: And what about the molecule COC(=O)CC/C(C)=C/Cc1c(OC)c(C)c2c(c1OCC#CCN1CCN(c3ccc(C)cc3)CC1)C(=O)OC2 ?
Result: > 50 µM

Query: And what about the molecule CCCCN(CC#CCOc1c(C/C=C(\C)CCC(=O)OC)c(OC)c(C)c2c1C(=O)OC2)CCCC ?
Result: 30.6 µM

Query: And what about the molecule COC(=O)CC/C(C)=C/Cc1c(OC)c(C)c2c(c1OCC#CCN1CCN(c3ncccn3)CC1)C(=O)OC2 ?
Result: > 50 µM

Query: And what about the molecule COC(=O)CC/C(C)=C/Cc1c(OC)c(C)c2c(c1OCC#CCN1CCN(C(C)=O)CC1)C(=O)OC2 ?
Result: > 50 µM

====

Here, each record is paired with measured pIC50 data.
test system: HT-29; experiment: Cytotoxicity against human HT-29 cells assessed as growth inhibition measured by SRB assay; type: functional, cell-based
pIC50: −log10 of the molar value.

COC(=O)CC/C(C)=C/Cc1c(OC)c(C)c2c(c1OCC#CCN1CCCc3ccccc31)C(=O)OC2	< 4.30

Query: Which measured pIC50 value corresponds to COC(=O)CC/C(C)=C/Cc1c(OC)c(C)c2c(c1OCC#CCN1CCN(c3ccccc3OC)CC1)C(=O)OC2 ?
Result: < 4.30

Query: And what about the compound COC(=O)CC/C(C)=C/Cc1c(OC)c(C)c2c(c1OCC#CCN(CC#CCOc1c(C/C=C(\C)CCC(=O)OC)c(OC)c(C)c3c1C(=O)OC3)CCC(C)C)C(=O)OC2 ?
Result: < 4.30
